Target: 12-lipoxygenase (Rattus norvegicus, UniProt F1LQ70)
Construct: the frozen platelet rich plasma was allowed to melt and then subjected to ultrasonic treatment in ice water so that an enzyme solution was obtained; from tissue; host or cells: rat platelets (washed, frozen, sonicated; crude enzyme solution)
Sequence (F1LQ70 1-663): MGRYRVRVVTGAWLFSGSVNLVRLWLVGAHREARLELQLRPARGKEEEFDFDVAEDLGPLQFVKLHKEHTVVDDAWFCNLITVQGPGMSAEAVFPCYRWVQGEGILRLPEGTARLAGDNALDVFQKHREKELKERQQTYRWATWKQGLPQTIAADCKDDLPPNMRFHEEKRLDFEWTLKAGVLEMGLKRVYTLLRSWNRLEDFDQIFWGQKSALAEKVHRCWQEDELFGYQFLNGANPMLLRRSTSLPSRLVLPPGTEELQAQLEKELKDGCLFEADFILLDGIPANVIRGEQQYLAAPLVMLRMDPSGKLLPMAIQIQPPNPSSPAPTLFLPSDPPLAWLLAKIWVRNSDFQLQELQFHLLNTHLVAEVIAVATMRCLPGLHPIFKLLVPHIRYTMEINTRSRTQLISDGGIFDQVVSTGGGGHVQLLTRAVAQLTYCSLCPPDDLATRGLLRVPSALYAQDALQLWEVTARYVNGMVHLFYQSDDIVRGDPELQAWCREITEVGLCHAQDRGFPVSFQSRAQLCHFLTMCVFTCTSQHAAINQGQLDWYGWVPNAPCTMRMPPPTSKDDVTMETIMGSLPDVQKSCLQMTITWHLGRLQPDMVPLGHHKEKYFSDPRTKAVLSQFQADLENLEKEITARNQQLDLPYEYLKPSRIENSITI
Experiment: 12-Lipoxygenase Inhibition Activity (In Vitro), 12-HETE production by rat platelet enzyme solution
Format: biochemical
Details: 10^-6 M; [14C]-arachidonic acid; 5 min pre-incubation at 37° C., 5 min reaction; read-out: Inhibition rate (%) of 12-HETE production
Label TRUE when inhibition at 1 µM is at or above 70%; anything below gets FALSE.

// below: answered molecules
{"smiles.data": "CCC[C@H](OC(=O)C(C#N)=Cc1ccc(OC(=O)OCC)c(OC(=O)OCC)c1)c1ccccc1", "qualitative.label": "TRUE"}
{"smiles.data": "COC(=O)Oc1ccc(C=C(C#N)C(=O)OCCc2cccs2)cc1OC(=O)OC", "qualitative.label": "FALSE"}
{"smiles.data": "CCOC(=O)Oc1ccc(C=C(C#N)C(=O)OCCc2ccccc2)cc1OC(=O)OCC", "qualitative.label": "TRUE"}
{"smiles.data": "CC(C)COC(=O)Oc1ccc(C=C(C#N)C(=O)OCCc2cccs2)cc1OC(=O)OCC(C)C", "qualitative.label": "FALSE"}
{"smiles.data": "CCOC(=O)Oc1cc(C=C(C#N)C(=O)OCCc2ccccc2)ccc1O", "qualitative.label": "TRUE"}

Problem: Hello, I need to know if CCOC(=O)Oc1ccc(C=C(C#N)C(=O)OCCCc2cccnc2)cc1OC(=O)OCC has measured inhibition at 1 µM not below 70%. Thanks!
Solution: FALSE

Problem: Hello, I need to know if CCC[C@@H](OC(=O)C(C#N)=Cc1ccc(OC(=O)OCC)c(OC(=O)OCC)c1)c1ccccc1 has measured inhibition at 1 µM not below 70%. Thanks!
Solution: FALSE

Problem: Hello, I need to know if CCOC(=O)Oc1cc(C=C(C#N)C(=O)OCCc2cccs2)cc(OC(=O)OCC)c1OC(=O)OCC has measured inhibition at 1 µM not below 70%. Thanks!
Solution: FALSE

Problem: Hello, I need to know if CCOC(=O)Oc1cc(C=C(C#N)C(=O)OCCc2cccs2)ccc1O has measured inhibition at 1 µM not below 70%. Thanks!
Solution: TRUE

Problem: Hello, I need to know if CCOC(=O)Oc1ccc(C=C(C#N)C(=O)OCCc2ccsc2)cc1OC(=O)OCC has measured inhibition at 1 µM not below 70%. Thanks!
Solution: TRUE

Problem: Hello, I need to know if N#CC(=Cc1ccc(OC(=O)OCc2ccccc2)c(OC(=O)OCc2ccccc2)c1)C(=O)OCCc1cccs1 has measured inhibition at 1 µM not below 70%. Thanks!
Solution: FALSE
